tgt: Programmed cell death protein 1/Programmed cell death 1 ligand 1 (Homo sapiens, UniProt Q15116+Q9NZQ7)
Sequence (Q15116 whole entry): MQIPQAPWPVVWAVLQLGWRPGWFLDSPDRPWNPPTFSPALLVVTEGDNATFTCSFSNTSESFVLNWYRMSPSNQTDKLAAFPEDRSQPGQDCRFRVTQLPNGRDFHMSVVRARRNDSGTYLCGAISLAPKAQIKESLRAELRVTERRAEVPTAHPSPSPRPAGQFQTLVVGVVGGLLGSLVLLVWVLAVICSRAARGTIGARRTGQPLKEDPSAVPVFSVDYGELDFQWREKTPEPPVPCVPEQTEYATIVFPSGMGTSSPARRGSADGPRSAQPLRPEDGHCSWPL
Sequence (Q9NZQ7 whole entry): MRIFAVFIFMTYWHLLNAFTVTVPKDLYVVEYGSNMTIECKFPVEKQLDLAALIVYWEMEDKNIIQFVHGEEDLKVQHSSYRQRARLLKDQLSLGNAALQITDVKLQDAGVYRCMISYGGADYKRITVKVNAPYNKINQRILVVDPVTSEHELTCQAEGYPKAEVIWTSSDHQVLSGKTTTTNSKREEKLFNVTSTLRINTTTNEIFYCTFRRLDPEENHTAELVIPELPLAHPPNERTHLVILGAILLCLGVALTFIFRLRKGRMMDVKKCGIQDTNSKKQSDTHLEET
protocolDetails: Inhibition of PD1/PD-L1 (unknown origin) protein-protein interaction measured after 135 mins by TR-FRET assay relative to control
Type: protein-complex assay
attributeMeasured: pIC50
Remember the convention: pIC50 equals -log10 of concentration in molar.

Param item = Cc1c(COc2ccc(CNC(CO)(CO)CO)c(OCc3nnc(-c4ccccc4)o3)c2)cccc1-c1cccc(OCCCN2CCOCC2)c1 ; retrieve measured pIC50.
6.19

Param item = Cc1ccccc1-c1cccc(COc2ccc(CNC(CO)(CO)CO)c(OCc3nnc(-c4ccccc4)o3)c2)c1C ; retrieve measured pIC50.
6.82

----------
IC50 values, listed per item
tgt: Programmed cell death protein 1/Programmed cell death 1 ligand 1 (Homo sapiens, UniProt Q15116+Q9NZQ7)
protocolDetails: Inhibition of PD1/PD-L1 (unknown origin)
Type: protein-complex assay
Only the number, expressed in nM, is required.

structureNotation: C[C@@](CO)(NCc1cc(Cl)c(O[C@H]2CCc3c(-c4cccc5c4CC[C@@H]5Oc4nc(OCc5cncc(S(C)(=O)=O)c5)c(CN[C@@](C)(CO)C(=O)O)cc4Cl)cccc32)nc1OCc1cncc(S(C)(=O)=O)c1)C(=O)O
unitOfMeasurement: nM
IC50: 0.058

Param item = CS(=O)(=O)c1cncc(COc2nc(O[C@H]3CCc4c(-c5cccc6c5CC[C@@H]6Oc5nc(OCc6cncc(S(C)(=O)=O)c6)c(CN6C[C@@H](O)C[C@H]6C(=O)O)cc5Cl)cccc43)c(Cl)cc2CN2C[C@@H](O)C[C@H]2C(=O)O)c1 ; retrieve measured IC50.
0.051

----------
pIC50 values, listed per item
tgt: Programmed cell death protein 1/Programmed cell death 1 ligand 1 (Homo sapiens, UniProt Q15116+Q9NZQ7)
protocolDetails: Inhibition of PD1/PD-L1 (unknown origin) protein-protein interaction measured after 135 mins by TR-FRET assay relative to control
Assay type: protein-complex assay
Remember the convention: pIC50 equals -log10 of concentration in molar.

structureNotation: Cc1c(COc2ccc(CNC(CO)(CO)CO)c(OCc3nc(-c4ccc(F)cc4)cs3)c2)cccc1-c1cccc(OCCCN2CCC(CO)CC2)c1
pIC50: 6.40
//
structureNotation: Cc1c(COc2ccc(CNC(CO)(CO)CO)c(OCc3nc(-c4ccc(F)cc4)cs3)c2)cccc1-c1cccc(OCCCN2CCC(O)CC2)c1C
pIC50: 6.78

# evaluate next
Param item = Cc1c(COc2ccc(CNC(CO)(CO)CO)c(OCc3nnc(-c4ccccc4)o3)c2)cccc1-c1cccc(OCCCN2CCC(CO)CC2)c1 ; retrieve measured pIC50.
7.42
